These data points were gathered from patent US20240132578A1.

TESTED TARGET: HIV-1 Env of isolate MGRM-G-017 (subtype G), on pseudovirus (HIV-1)
MEASUREMENT DESCRIPTION: cell-based or functional assay
METRIC: IC50 (µg/mL), neutralization of pseudovirus
// note: answer is a bare numeric in µg/mL

Give the measured IC50 (µg/mL), neutralization of pseudovirus of PGT-135 (antibody, V domains shown) VH: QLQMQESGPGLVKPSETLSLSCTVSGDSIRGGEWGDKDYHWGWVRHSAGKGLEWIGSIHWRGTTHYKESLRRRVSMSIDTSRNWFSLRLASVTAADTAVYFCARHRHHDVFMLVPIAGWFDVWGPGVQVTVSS VL: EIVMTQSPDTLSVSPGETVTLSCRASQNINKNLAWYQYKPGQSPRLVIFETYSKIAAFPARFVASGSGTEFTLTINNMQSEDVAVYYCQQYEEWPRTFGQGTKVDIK . 0.137

// query IC50 (µg/mL), neutralization of pseudovirus value for entry PGT-128 (antibody, V domains shown) VH: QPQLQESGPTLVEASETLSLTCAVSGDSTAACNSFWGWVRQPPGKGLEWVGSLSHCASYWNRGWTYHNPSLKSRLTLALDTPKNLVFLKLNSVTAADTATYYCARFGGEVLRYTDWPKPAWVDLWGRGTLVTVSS VL: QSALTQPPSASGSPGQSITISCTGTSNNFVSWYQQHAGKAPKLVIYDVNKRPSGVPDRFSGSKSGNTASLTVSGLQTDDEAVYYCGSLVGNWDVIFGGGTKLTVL 0.319
